The values you see were collected from patent US10647713B2.

# assay-target: human TYK2 (JH2domain-pseudokinase) (Homo sapiens (Human))
# protocol-description: TYK2 JH2 Domain Binding Assay (KINOMEscan, DiscoveRx)
# test-parameters: 11-point dilution, duplicate
pKd: −log10 of the molar value.
assay-metric: pKd

1) COc1c(Nc2cc(NC(=O)C3CC3)nc3[nH]c(C(F)F)nc23)cccc1-c1nn(C)nc1C [I-53]
< 8.00
2) COCCCn1ccc(-c2ccc(Nc3cc(NC(=O)C4CC4)nc4[nH]c(C)nc34)c(S(C)(=O)=O)c2)n1 [I-502]
9.30 to 10.00
3) COc1c(Nc2cc(Nc3ccc(NCCCCl)c(C#N)n3)nc3[nH]c(C)nc23)cccc1-c1nnn(C)n1 [I-403]
9.00 to 9.30
4) CN=S(C)(=O)c1cc(-c2ccn(C)n2)ccc1Nc1cc(NC(=O)C2CC2)nc2[nH]c(C)nc12 (centres unmarked) [I-640]
9.30 to 10.00
5) COc1c(Nc2cc(Nc3cccc(C#N)n3)nc3[nH]c(C)nc23)cccc1-c1cnn(C)n1 [I-540]
9.30 to 10.00
6) Cc1nc2c(Nc3ccc(C4=NC(C)(C)CS4)cc3S(C)(=O)=O)cc(NC(=O)[C@H]3CC3(F)F)nc2[nH]1 [I-484]
8.00 to 9.00
7) CS(=O)(=O)c1cc([C@H]2CCCO2)ccc1Nc1cc(NC(=O)[C@@H]2CC2(F)F)nc2[nH]c(C(F)F)nc12 [I-306]
9.00 to 9.30
8) Cc1nc2c(Nc3ccccc3[S+](C)[O-])cc(NC(=O)C3CC3)nc2[nH]1 (centres unmarked) [I-336]
8.00 to 9.00

----------
Below, each entry is listed alongside its reported pKd.
# assay-target: human TYK2 (JH2domain-pseudokinase) (Homo sapiens (Human))
# protocol-description: TYK2 JH2 Domain Binding Assay (KINOMEscan, DiscoveRx)
# test-parameters: 11-point dilution, duplicate
pKd: −log10 of the molar value.
assay-metric: pKd

1) CS(=O)(=O)c1cc(F)ccc1Nc1cc(NC(=O)C2CC2)nc2[nH]c(C(F)F)nc12
9.00 to 9.30
2) COc1c(Nc2cc(NC(=O)C3CC3)nc3[nH]c(C)nc23)cccc1-c1nn(C)nc1C
8.00 to 9.00
3) Cc1nc2c(Nc3ccc(C4CCCO4)cc3S(C)(=O)=O)cc(NC(=O)C3CC3)nc2[nH]1 (stereo not shown)
> 10.00
4) COc1c(Nc2cc(Nc3cc(C)cc(C#N)n3)nc3[nH]c(C(F)F)nc23)cccc1-c1nnn(C)n1
9.00 to 9.30

----------
# assay-target: human TYK2 (JH2domain-pseudokinase) (Homo sapiens (Human), UniProt P29597)
# Sequence (P29597 556-888): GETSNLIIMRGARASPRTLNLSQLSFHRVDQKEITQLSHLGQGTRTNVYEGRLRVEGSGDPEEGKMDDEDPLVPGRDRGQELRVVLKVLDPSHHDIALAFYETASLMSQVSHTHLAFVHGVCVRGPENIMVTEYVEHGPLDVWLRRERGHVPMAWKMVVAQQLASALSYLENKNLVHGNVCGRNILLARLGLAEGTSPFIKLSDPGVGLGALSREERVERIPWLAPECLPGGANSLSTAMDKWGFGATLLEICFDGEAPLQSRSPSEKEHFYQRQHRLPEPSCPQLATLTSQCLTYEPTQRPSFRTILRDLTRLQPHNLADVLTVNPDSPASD
# protocol-description: TYK2 JH2 Domain Binding Assay (KINOMEscan, DiscoveRx)
# test-parameters: 11-point dilution, duplicate
assay-metric: Kd

1) Cc1nc2c(Nc3ccc(-c4cnn(C)c4C)cc3S(C)(=O)=O)cc(NC(=O)C3CC3)nc2[nH]1 [I-265]
< 0.1 nM
2) CN=[S@](C)(=O)c1ccccc1Nc1cc(NC(=O)C2CC2)nc2[nH]c(C(F)F)nc12 [I-395]
0.1 to 0.5 nM
3) COc1cc(-c2nc(C)c(C)s2)ccc1Nc1cc(NC(=O)C2CC2)nc2[nH]c(C(F)F)nc12 [I-582]
> 10 nM
4) COc1c(Nc2cc(Nc3cnc(N4CC[C@@H](OC)C4)c(C#N)n3)nc3[nH]c(C)nc23)cccc1-c1nnn(C)n1 [I-117]
1 to 10 nM
5) CS(=O)(=O)c1cc(C2CCCCO2)ccc1Nc1cc(NC(=O)C2CC2)nc2[nH]c(C(F)F)nc12 (centres unmarked) [I-401]
< 0.1 nM
6) CN(c1cc(-c2cncn2C)ccc1Nc1cc(NC(=O)[C@H]2CC2(F)F)nc2[nH]c(C(F)F)nc12)S(C)(=O)=O [I-271]
1 to 10 nM
7) CO[C@@H](C)c1ccc(Nc2cc(NC(=O)C3CC3)nc3[nH]c(C(F)F)nc23)c(S(C)(=O)=O)c1 [I-455]
1 to 10 nM
8) Cc1nc2c(Nc3ccc(-c4nn(C)cc4C)cc3S(C)(=O)=O)cc(Nc3cnc(C)c(C)n3)nc2[nH]1 [I-449]
0.1 to 0.5 nM

----------
# assay-target: human TYK2 (JH2domain-pseudokinase) (Homo sapiens (Human), UniProt P29597)
# protocol-description: TYK2 JH2 Domain Binding Assay (KINOMEscan, DiscoveRx)
# test-parameters: 11-point dilution, duplicate
// reported Kd per item
assay-metric: Kd

1) Cc1ncc(Nc2cc(Nc3ccc(C4CCC(C)(C)CO4)cc3S(C)(=O)=O)c3nc(C(F)F)[nH]c3n2)nc1C (stereo not drawn)
100 to 500 pM
2) Cc1cc(Nc2cc(Nc3ccccc3N(C)S(C)(=O)=O)c3nc(C)[nH]c3n2)nc(C)n1
100 to 500 pM
3) Cc1cc(-c2ccc(Nc3cc(NC(=O)C4CC4)nc4[nH]c(C(F)F)nc34)c(S(C)(=O)=O)c2)oc1C
1000 to 10000 pM
4) Cc1c(-c2ccc(Nc3cc(NC(=O)[C@@H]4CC4(F)F)nc4[nH]c(C(F)F)nc34)c(S(C)(=O)=O)c2)cnn1C
100 to 500 pM
5) Cc1ncc(Nc2cc(Nc3ccc(-c4c(C)nn(C)c4C)cc3S(C)(=O)=O)c3nc(C(F)F)[nH]c3n2)nc1C
100 to 500 pM
6) Cc1nc2c(Nc3ccc(-c4ccn(C)n4)cc3S(C)(=O)=O)cc(NC(=O)[C@@H]3C[C@@H]3F)nc2[nH]1 [I-211]
100 to 500 pM
7) CC1(C)CSC(c2ccc(Nc3cc(NC(=O)[C@H]4CC4(F)F)nc4[nH]c(C(F)F)nc34)c(S(C)(=O)=O)c2)=N1
1000 to 10000 pM
8) Cc1nc2c(Nc3ccc(F)cc3S(C)(=O)=O)cc(Nc3ccc(OC4CCOCC4)c(C#N)n3)nc2[nH]1
< 100 pM
9) Cc1nc2c(Nc3ccccc3S(C)(=O)=O)cc(Nc3ccc(OC4CCOCC4)c(C#N)n3)nc2[nH]1
< 100 pM
10) COc1cc(-c2nn(C)cc2C)ccc1Nc1cc(NC(=O)C2CC2)nc2[nH]c(C)nc12
500 to 1000 pM
11) COc1c(Nc2cc(Nc3cccc(C#N)n3)nc3[nH]c(C)nc23)cccc1-c1nc(C)nn1C
500 to 1000 pM
12) Cc1cn(C)c(-c2ccc(Nc3cc(NC(=O)C4CC4)nc4[nH]c(C)nc34)c(S(C)(=O)=O)c2)n1
100 to 500 pM
13) Cc1nc2c(Nc3ccc(-c4cnn(C)c4C)cc3S(C)(=O)=O)cc(Nc3ccc(C(C)C)c(C#N)n3)nc2[nH]1
100 to 500 pM
14) Cc1nc2c(Nc3ccc(-c4ccn(C)n4)cc3N(C)S(C)(=O)=O)cc(NC(=O)C3CC3)nc2[nH]1
100 to 500 pM
15) COC1CN(c2ccc(Nc3cc(NC(=O)C4CC4)nc4[nH]c(C)nc34)c(N(C)S(C)(=O)=O)c2)C1
1000 to 10000 pM
16) Cc1nc2c(Nc3ccc(-c4cncn4C)cc3S(C)(=O)=O)cc(NC(=O)[C@@H]3C[C@@H]3F)nc2[nH]1
< 100 pM
17) Cc1nc2c(Nc3ccc([C@@H]4CCCO4)cc3S(C)(=O)=O)cc(NC(=O)C3CC3(F)F)nc2[nH]1 (stereo partly drawn)
100 to 500 pM
18) Cc1nc2c(Nc3ccc([C@H]4COCCO4)cc3S(C)(=O)=O)cc(NC(=O)C3CC3)nc2[nH]1
100 to 500 pM
19) CS(=O)(=O)c1cc([C@@H]2CCCOC2)ccc1Nc1cc(NC(=O)C2CC2(F)F)nc2[nH]c(C(F)F)nc12 (stereo partly drawn)
1000 to 10000 pM
20) COc1ccccc1Nc1cc(NC(=O)C2CC2)nc2[nH]c(C)nc12
> 10000 pM
21) Cc1nc2c(Nc3ccc(-c4cc(C)n(C)n4)cc3N(C)S(C)(=O)=O)cc(NC(=O)C3CC3)nc2[nH]1
> 10000 pM
22) COc1c(Nc2cc(NC(=O)[C@@H]3C[C@@H]3F)nc3[nH]c(C(F)F)nc23)cccc1-c1ncn(C)n1 [I-296]
500 to 1000 pM
23) CN=S(C)(=O)c1cc(-c2ccn(C)n2)ccc1Nc1cc(NC(=O)C2CC2)nc2[nH]c(C(F)F)nc12 (stereo not drawn)
100 to 500 pM
24) Cc1nc2c(Nc3ccc([C@@H]4CCCO4)cc3S(C)(=O)=O)cc(NC(=O)C3CC3)nc2[nH]1
100 to 500 pM
25) Cn1ccc(-c2ccc(Nc3cc(NC(=O)[C@H]4CC4(F)F)nc4[nH]c(C(F)F)nc34)c(S(C)(=O)=O)c2)n1
1000 to 10000 pM
26) COc1c(Nc2cc(NC(=O)C3CC3)nc3[nH]c(C)nc23)cccc1-c1c(C)nnn1C
1000 to 10000 pM
27) Cc1cn(C)nc1-c1ccc(Nc2cc(NC(=O)C3CC3(C)C)nc3[nH]c(C(F)F)nc23)c(S(C)(=O)=O)c1 (stereo not drawn)
1000 to 10000 pM
28) Cc1nc2c(Nc3ccc(C4=NC(C)(C)CS4)cc3S(C)(=O)=O)cc(Nc3cnc(C)c(C)n3)nc2[nH]1
1000 to 10000 pM
29) Cc1nc2c(Nc3ccc(C4CCOC4)cc3S(C)(=O)=O)cc(NC(=O)C3CC3)nc2[nH]1 (stereo not drawn)
100 to 500 pM
30) C#Cc1cccc(Nc2cc(Nc3ccccc3S(C)(=O)=O)c3nc(C)[nH]c3n2)n1
< 100 pM
